# System name: WRN [UniPro: Q14191 (WRN_HUMAN), N500-C946] (Homo sapiens (Human), UniProt Q14191)
# Sequence (Q14191 500-946): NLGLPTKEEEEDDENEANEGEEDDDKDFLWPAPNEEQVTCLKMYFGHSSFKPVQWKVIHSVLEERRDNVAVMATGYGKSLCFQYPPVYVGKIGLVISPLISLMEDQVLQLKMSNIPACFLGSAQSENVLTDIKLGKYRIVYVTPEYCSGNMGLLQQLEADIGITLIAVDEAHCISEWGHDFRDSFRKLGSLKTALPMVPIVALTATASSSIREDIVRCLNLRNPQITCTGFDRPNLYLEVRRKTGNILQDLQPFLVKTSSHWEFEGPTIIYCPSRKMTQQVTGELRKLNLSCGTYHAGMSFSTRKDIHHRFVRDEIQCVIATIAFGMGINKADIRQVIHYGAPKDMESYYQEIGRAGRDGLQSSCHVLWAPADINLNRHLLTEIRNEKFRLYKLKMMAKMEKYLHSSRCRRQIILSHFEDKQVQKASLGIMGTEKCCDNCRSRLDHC
# Assay protocol: WRN ATPase assay (ADP-Glo)
# Type: biochemical
# Study conditions: WRN enzymatic activity assay
# Method: WRN ATPase assay was initiated to evaluate potential inhibitory effect of compounds for ATP hydrolysis activity of WRN protein. WRN [UniPro: Q14191 (WRN_HUMAN), N500-C946] was expressed and purified in insect system and stored at −80° C. in aliquots. […] ADP quantity produced from ATP hydrolysis by WRN catalytic reaction was measured using a commercially available ADP-Glo Assay (ADP-Glo™ Kinase Assay from Promega, 10000 assays, #V9102). […]
pIC50: −log10 of the molar value.
Observed property: pIC50

So for CCc1c(N2CCN(C(=O)CNC(=O)c3ccccc3F)CC2)c(=O)n2nc(C3=CCOCC3)nc2n1CC(=O)Nc1ccc(F)cc1F [Example 150] , the logged pIC50 turned out to be > 7.00

Short answer for CCc1c(N2CCN(C(=O)C(=O)NC3CC3)CC2)c(=O)n2nc(C3=CCOCC3)nc2n1CC(=O)Nc1ccc(C(F)(F)F)cc1Cl [Example 359] : pIC50 was 6.00 to 7.00

Memo: CCc1c(N2CCN(C(=O)CNC(=O)c3ccccc3F)CC2)c(=O)n2nc(N3CC(F)(F)C3)nc2n1CC(=O)Nc1ccc(C(F)(F)F)cc1Cl [Example 244] , reported pIC50: > 7.00

The compound CCc1c(N2CCN(C(=O)CNC(=O)c3ccccc3F)CC2)c(=O)n2nc(C3=CCOCC3)nc2n1CC(=O)Nc1ccc(C(F)(F)F)cc1F [Example 149] showed pIC50 equal to > 7.00

CCc1c(N2CCN(C(=O)CNC(=O)c3ccc(F)c(F)c3)CC2)c(=O)n2nc(C3=CCOCC3)nc2n1CC(=O)Nc1ccc(C(F)(F)F)cc1Cl [Example 132] yielded pIC50 of > 7.00

Just so you know, measured pIC50 for CCc1c(N2CCN(C(=O)CNC(=O)c3cccnc3O)CC2)c(=O)n2nc(C3=CCOCC3)nc2n1CC(=O)Nc1ccc(C(F)(F)F)cc1Cl [Example 282] came out at > 7.00

Recorded pIC50 (compound CCc1c(N2CCN(C(=O)c3nnc(Cl)cc3O)CC2)c(=O)n2nc(C3=CCOCC3)nc2n1CC(=O)Nc1ccc(C(F)(F)F)cc1Cl [Example 83] ): > 7.00

Noted for CCc1c(N2CCN(C(=O)CNC(=O)c3ccc(NC)cc3F)CC2)c(=O)n2nc(C3=CCOCC3)nc2n1CC(=O)Nc1ccc(C(F)(F)F)cc1Cl [Example 380] : its pIC50 reads 6.00 to 7.00

The reported pIC50 of the compound CCc1c(N2CCN(C(=O)C(=O)Nc3ccccn3)CC2)c(=O)n2nc(C3=CCOCC3)nc2n1CC(=O)Nc1ccc(C(F)(F)F)cc1F [Example 229] was 6.00 to 7.00

Lab book: pIC50 of CCc1c(N2CCN(C(=O)CNC(=O)c3cc(C)ns3)CC2)c(=O)n2nc(C3=CCOCC3)nc2n1CC(=O)Nc1ccc(C(F)(F)F)cc1Cl [Example 122] noted as > 7.00

Lab note: measured pIC50 of CCc1c(N2CCN(C(=O)C(=O)Nc3cc(C)[nH]n3)CC2)c(=O)n2nc(C3=CCOCC3)nc2n1CC(=O)Nc1ccc(C(F)(F)F)cc1Cl [Example 331] was > 7.00

Lab book: pIC50 of CCc1c(N2CCN(C(=O)CNC(=O)c3ccccc3F)CC2)c(=O)n2nc(N3CCOCC3)nc2n1CC(=O)Nc1ccc(C(F)(F)F)cc1F [Example 254] noted as > 7.00
